Field pIC50: reported value for Hematopoietic prostaglandin D synthase (Homo sapiens); entries drawn from several documents.
pIC50: −log10 of the molar value.
metricName: pIC50

Please review the entries below; each comes with its answer.
O=C(NN1CCCCC1)c1cnc(-c2cccc(F)c2)nc1: 7.71
Cc1nc(-c2ncc(C(=O)NN3CCN(CCO)CC3)cn2)no1: 6.34
Cc1cc2ccccc2n1NC(=O)c1cnc(-c2cccc(F)c2)nc1: 8.22
Cc1nc(-c2cccc(F)c2)ncc1C(=O)NN1CCc2ccccc21: 7.64
CN(C)S(=O)(=O)CCNC(=O)c1cnc(-c2ccccc2)nc1: 7.09

(a) Cc1nc(-c2ccccn2)ncc1C(=O)Nn1ccc2cc(F)ccc21
(b) Cc1[nH]c(C(=O)N2CCC(C(=O)N(C)CCN(C)C)CC2)c(C)c1-c1nc2cc(C(=O)c3ccccc3)ccc2[nH]1
In: Lab note: record which item had the higher pIC50, a or b . Pick one and reply with its label.
Out: a

(1) O=C(NN1CCN(C(=O)C(F)(F)F)CC1)c1cnc(-c2ccccc2)nc1
(2) Cc1[nH]c(C(N)=O)c(C)c1-c1nc2cc(C(=O)c3ccccc3)ccc2[nH]1
(3) Cc1nc(-c2ncccn2)ncc1C(=O)Nn1cc(C)c2cc(F)ccc21
(4) CC1=NNC(=O)N(NC(=O)c2cnc(-c3cccc(O)c3)nc2)C1
(5) Cc1[nH]c(C(=O)N2CCN(c3ccccc3)CC2)c(C)c1-c1nc2cc(C(=O)c3ccccc3)ccc2[nH]1
In: # desc sort on pIC50 across 5 compounds Reply with the item labels sorted in the order that was asked for.
Out: 3, 4, 1, 2, 5
(3: 8.35, 4: 7.68, 1: 7.24, 2: 7.00, 5: 5.84)

(1) Cc1[nH]c(C(=O)NCc2ccc3c(c2)OCO3)c(C)c1-c1nc2cc(C(=O)c3ccccc3)ccc2[nH]1
(2) Cc1nc(-c2cccc(F)c2)ncc1C(=O)NN(c1ccccc1)c1ccccc1
In: I need your help: which of the pair 1 , 2 has higher pIC50? Reply with the label of the item you choose.
Out: 2
(2: 7.80, 1: 6.67)

(A) O=C(NN1CCOC1=O)c1cnc(-c2ccccc2)nc1
(B) O=C(Nn1cc(Br)c(=O)[nH]c1=O)c1cnc(-c2ccccc2)nc1
In: A or B : whose pIC50 is greater? Write down the label of the entry you select.
Out: A

(1) Cc1nc(-c2nccs2)ncc1C(=O)Nn1cc(CCC(C)(C)O)c2cc(F)ccc21
(2) O=C(NCc1ccccc1)c1cnc(-c2ccccc2)nc1
In: Between the entries labeled 1 and 2 , whose measured pIC50 is lower? Choose, then provide that item's label.
Out: 2
(2: 8.00, 1: 8.30)

(A) O=C(NN1CCN(C(=O)OCc2ccccc2)CC1=O)c1cnc(-c2ccccc2)nc1
(B) Cc1nc(-c2ccccn2)ncc1C(=O)Nn1c(C)cc2cc(F)ccc21
(C) CONC(=O)c1[nH]c(C)c(-c2nc3cc(Oc4ccccc4)ccc3[nH]2)c1C
(D) CC(C)(CO)NS(=O)(=O)c1cccc(CNC(=O)c2cnc(-c3cccc(F)c3)nc2)c1
In: // ascending sort on recorded pIC50 Ranked list of labels, please, in the requested order.
Out: C, A, D, B

(1) Cc1nc(-c2ncc(C(=O)NC3CCOCC3)cn2)cs1
(2) CON(C)C(=O)c1[nH]c(C)c(-c2nc3cc(Oc4ccccc4)ccc3[nH]2)c1C
In: Param metric = pIC50; output whichever of 1 , 2 has the minimum value. Identify your pick by its label.
Out: 2
(2: 6.58, 1: 7.09)

(I) O=C(c1ccccc1)c1ccc2[nH]c(-c3ccc(Br)o3)nc2c1
(II) Cc1cc(NC(=O)c2[nH]c(C)c(-c3nc4cc(C(=O)c5ccccc5)ccc4[nH]3)c2C)no1
(III) O=C(NN1CCOCC1=O)c1cnc(-c2ccccc2)nc1
(IV) Cc1[nH]c(C(=O)N2CCC(C(=O)NCC3CCCCC3)CC2)c(C)c1-c1nc2cc(C(=O)c3ccccc3)ccc2[nH]1
In: List by increasing pIC50. Ranked list of labels, please, in the requested order.
Out: I, IV, II, III
(I: 5.63, IV: 6.07, II: 6.83, III: 7.26)

* * *

pIC50: −log10 of the molar value.
Ok so here's the combined literature set: pIC50 for Hematopoietic prostaglandin D synthase (Homo sapiens).
metricName: pIC50

Consider the reported pIC50 for these molecules:
CNS(=O)(=O)c1cccc(CNC(=O)c2cnc(-c3cccc(F)c3)nc2)c1: 8.02
Cc1[nH]c(C(=O)N2CCC(C(=O)O)CC2)c(C)c1-c1nc2cc(C(=O)c3ccccc3)ccc2[nH]1: 6.19

(A) Cc1nc(-c2cccc[n+]2[O-])ncc1C(=O)Nn1cc(C)c2cc(F)ccc21
(B) COCCCNC(=O)c1[nH]c(C)c(-c2nc3cc(C(=O)c4ccccc4)ccc3[nH]2)c1C
In: // task: argmin of pIC50 over [ A , B ] Record your answer as the label of the chosen record.
Out: B
(B: 5.64, A: 6.07)

(I) Cc1[nH]c(C#N)c(C)c1-c1nc2cc(Oc3ccccc3)ccc2[nH]1
(II) O=C(NN1CC(CN2CCOCC2)OC1=O)c1cnc(-c2ccccc2)nc1 (centres unmarked)
In: Kindly identify the item with the lower pIC50 figure among these two: I and II Please identify the chosen entry by its label.
Out: I
(I: 6.66, II: 7.70)

(I) O=C(Nn1cnnc1)c1cnc(-c2ccccc2)nc1
(II) O=C(c1ccccc1)c1ccc2[nH]c(-c3ccc(C(=O)N4CCSC4)o3)nc2c1
In: Dear colleague, could you let me know whether I or II has the lower recorded pIC50? Thanks. Give the label of your selection.
Out: II
(II: 5.90, I: 6.58)

* * *

What follows is literature data on IC50 for Hematopoietic prostaglandin D synthase (Homo sapiens, UniProt O60760).
metricName: IC50 (nM)

CCc1cn(NC(=O)c2cnc(-c3cccc(F)c3)nc2C)c2cnccc12: 7
COC(=O)CNC(=O)c1[nH]c(C)c(-c2nc3cc(C(=O)c4ccccc4)ccc3[nH]2)c1C: 871
Cc1[nH]c(C(=O)Nc2ccc3c(c2)CCO3)c(C)c1-c1nc2cc(C(=O)c3ccccc3)ccc2[nH]1: 113
COCCCNC(=O)C1CCN(C(=O)c2[nH]c(C)c(-c3nc4cc(C(=O)c5ccccc5)ccc4[nH]3)c2C)CC1: 649
CON(C)C(=O)c1[nH]c(C)c(-c2nc3cc(C(=O)c4ccccc4)ccc3[nH]2)c1C: 256
O=C(Nc1nc(-c2ccccc2)ns1)c1cnc(-c2ccccc2)nc1: 30
Cc1[nH]c(C(=O)NCCc2ccccn2)c(C)c1-c1nc2cc(Oc3ccccc3)ccc2[nH]1: 209
Cc1[nH]c(/C=C/C#N)c(C)c1-c1nc2cc(C(=O)c3ccccc3)ccc2[nH]1: 110

(A) COc1ccc2c(ccn2NC(=O)c2cnc(-c3cccc(F)c3)nc2C)c1
(B) O=C(c1ccccc1)c1ccc2[nH]c(-c3c[nH]c(C(=O)N4CCCC4)c3)nc2c1
In: Between item A and item B , which reported IC50 is smaller? # answer = label of selected item
Out: A

(P) Cc1nc(-c2cccc(F)c2)ncc1C(=O)Nn1cc(C(C)(C)C(=O)O)c2cc(F)ccc21
(Q) Cc1coc(C)c1-c1nc2cc(C(=O)c3ccccc3)ccc2[nH]1
In: Looking at recorded values for IC50, does P or Q come in lower? Your answer should be the label attached to the chosen record.
Out: P
(P: 7 nM, Q: 796 nM)

(a) CC(=O)NCCNC(=O)c1[nH]c(C)c(-c2nc3cc(C(=O)c4ccccc4)ccc3[nH]2)c1C
(b) Cc1[nH]c(C(=O)NCCN2CCCCC2)c(C)c1-c1nc2cc(C(=O)c3ccccc3)ccc2[nH]1
(c) CNS(=O)(=O)c1cccc(CNC(=O)c2cnc(-c3cc(F)cc(F)c3)nc2)c1
(d) Cc1nc(-c2cccc(F)c2)ncc1C(=O)Nn1ccc2cccnc21
In: Place the items in sequence of falling IC50. Provide the labels, sequenced as the question asks.
Out: b, a, c, d
(b: 496 nM, a: 80 nM, c: 49 nM, d: 12 nM)

* * *

IC50 values for Hematopoietic prostaglandin D synthase (Homo sapiens, UniProt O60760), compiled from several publications.
metricName: IC50 (nM)

Consider the worked cases shown below.
O=C(NCc1cccc(S(=O)(=O)NCCCO)c1)c1cnc(-c2cccc(F)c2)nc1: 22
NS(=O)(=O)CCNC(=O)c1cnc(-c2ccccc2)nc1: 55
Cc1[nH]c(C(=O)Nc2ccc3ncsc3c2)c(C)c1-c1nc2cc(C(=O)c3ccccc3)ccc2[nH]1: 90
NS(=O)(=O)c1ccc(NC(=O)c2cnc(-c3ccccc3)nc2)cc1: 5

(I) Cc1[nH]c(C(=O)NCC2CCCCC2)c(C)c1-c1nc2cc(C(=O)c3ccccc3)ccc2[nH]1
(II) O=C(NN1CCc2ccccc21)c1cnc(-c2ccccn2)nc1
In: Compare I and II and name the one whose reported IC50 is smaller. Mark your answer with the label of the selected entry.
Out: II
(II: 3 nM, I: 286 nM)

(I) Cc1nc(-c2ccccn2)ncc1C(=O)Nn1cc(C)c2cc(F)ccc21
(II) NS(=O)(=O)c1ccc(CNC(=O)c2cnc(-n3cccn3)nc2)cc1
In: Kindly identify the item with the lower IC50 figure among these two: I and II API: response body contains the label of the selected item.
Out: I
